assay overview: Trypanosoma cruzi growth suppression in host cells – NIH3T3 host cells, beta-gal luminescence, confirmation (AID 2044);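 further: intracellular parasites grown in NIH/3T3 mouse fibroblasts as host cells; luminescent beta-galactosidase reporter signal from transgenic T. cruzi replicating inside host cells; inhibitors lower the luminescence signal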
Assay type: functional, cell-based
Active and inactive are the calls of the source.
# Lookup of reported EC50 keyed by entry

| molecule | EC50 |
| --- | --- |
| CN=C(S)N1N=C(c2ccc(Br)cc2)CC1c1ccc(Br)cc1 (stereo not given) | 1640 nM (active) |
| CC(C)Cn1c(N)c(C(=O)NCc2cccs2)c2nc3ccccc3nc21 | 2170 nM (active) |
| Cc1ccc(C(=O)N/C(=C\c2ccc(-c3ccc(Cl)cc3)o2)C(=O)NCCCN(C)C)cc1 | 1630 nM (active) |
| O=[N+]([O-])c1cn(-c2nc(-c3ccco3)cc(C(F)(F)F)n2)cn1 | 723 nM (active) |
| COC(=O)NC(=S)Nc1ccc(Oc2ccc(Cl)cc2Cl)c(Cl)c1 | 1830 nM (active) |
| CN(c1cccc(NC(=O)CN(c2ccc(C34CC5CC(CC(C5)C3)C4)cc2)S(C)(=O)=O)c1)S(C)(=O)=O | 1600 nM (active) |
| CC(C)(C)n1nnnc1C(c1cccs1)N(Cc1ccc(Cl)cc1)CC1CCCO1 (stereo not given) | 2410 nM (active) |
| CN1c2ccccc2N(C)C1(C)c1ccccc1 | 278 nM (active) |
| Cc1cc(Br)c(NC(=O)CN2CC=C(c3ccccc3)CC2)c(Br)c1 | 255 nM (active) |
| COc1cc(C2SCC(=O)N2CCCN(C)C)cc(OC)c1OC (stereo not given) | 264 nM (active) |

---

# Lookup of reported AC50 keyed by entry
experimental target: UniProtKB Q03530
Sequence (Q03530 whole entry): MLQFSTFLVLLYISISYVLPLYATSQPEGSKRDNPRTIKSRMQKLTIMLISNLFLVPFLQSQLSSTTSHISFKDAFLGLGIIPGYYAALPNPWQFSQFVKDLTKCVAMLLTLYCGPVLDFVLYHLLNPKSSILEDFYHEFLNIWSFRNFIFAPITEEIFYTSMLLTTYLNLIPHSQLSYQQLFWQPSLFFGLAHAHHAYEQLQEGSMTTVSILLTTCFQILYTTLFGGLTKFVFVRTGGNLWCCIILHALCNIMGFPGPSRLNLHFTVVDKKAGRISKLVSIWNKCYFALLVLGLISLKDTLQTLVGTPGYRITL
Assay type: biochemical
The source made the active and inactive calls.
metric name: AC50

| molecule | metric name | result |
| --- | --- | --- |
| CC(NC(=O)/C(C#N)=C/c1ccc(Cl)c([N+](=O)[O-])c1)c1ccccc1 (centres undefined) | AC50 | 2.44 µM (active) |
| CN1CCN(CCCNC(=O)c2cc3c(-c4ccc(Cl)cc4)nn(C)c3s2)CC1 | AC50 | 7.05 µM (active) |
| COc1ccc(-n2nc(C(=O)NCC(=O)N(C)Cc3ccccc3)c3ccccc3c2=O)cc1 | AC50 | 70.8 µM (active) |
| CC1CCN(Cc2c(C(=O)N/N=C/c3cccc(C(F)(F)F)c3)nnn2-c2nonc2N)CC1 | AC50 | 0.254 µM (active) |

---

assay overview: Luminescence Cell-Based Dose Retest to Confirm Inhibitors of Cancer Stem Cells. [Related pubchem assays (depositor defined):AID2717, AID2721]
Format: functional
reported conditions: Homo sapiens
Activity calls are given as the source filed them.
# Lookup of reported AC50 keyed by entry

| molecule | AC50 |
| --- | --- |
| O=C(NNc1c2ccccc2nc2ccccc12)c1ccccc1O | 18300 nM (active) |
| CCOC(=O)c1c(NC(=O)c2nn(CC)cc2Br)sc2c1CCCCC2 | 1120 nM (active) |
| CCOC(=O)c1c(C)sc2c1N(C(=O)CCl)c1cc(Cl)ccc1S2 | 2220 nM (active) |
| COc1ccc(Oc2c(Cl)cnn(-c3ccc(Cl)c(Cl)c3)c2=O)cc1 | 4570 nM (active) |
| O=C(NCc1cccnc1)c1ccc(NC(=O)c2ccc(Br)cc2)cc1 | 1360 nM (active) |
| COc1ccc(C2NCCc3c2[nH]c2ccccc32)cc1COc1ccc(F)cc1 (stereo unspecified) | 5890 nM (active) |
| Cc1cccc(NC(=O)c2cc(-c3cc(C)cc(C)c3O)[nH]n2)c1 | 2860 nM (active) |
| CN(C)CCNc1nc2sc3c(c2c(=O)n1CCc1ccccc1)CCCCC3 | 6600 nM (active) |
| Cc1cccc(C)c1OCc1cc(C(=O)N2C[C@@H]3C[C@H]4C[C@@H](C3)C[C@@H]2C4)no1 | 1270 nM (active) |
| FC(F)(F)c1nnc(-c2ccccc2)nc1Sc1ccc(Cl)cc1 | 4000 nM (active) |
| CC(=O)Nc1ccc(NC(=O)c2nc(S(=O)(=O)Cc3cccc(C)c3)ncc2Cl)cc1 | 2470 nM (active) |
